- Tested on: NanU
- ASSAY_NOTES: Steady-state tryptophan fluorescence titration, NanU (species not told apart)
- Format: binding
- CONDITION_DESCRIPTION: tryptophan fluorescence quenching
MEASURED_QUANTITY: binding to NanU (in words)

COMPOUND | RESULT
CC(=O)N[C@H]1NC[C@H](C(=O)O)[C@H](O)[C@@H]1O [Siastatin B, siastatin B] | No binding
CCOC(=O)C1=C[C@@H](OC(CC)CC)[C@H](NC(C)=O)[C@@H](N)C1 [Oseltamivir, oseltamivir] | No binding

====

- TARGET_ENTITY: BF-NanU (BF1720) (Bacteroides fragilis, UniProt Q5LEN2)
- Sequence (Q5LEN2 entry or part of it): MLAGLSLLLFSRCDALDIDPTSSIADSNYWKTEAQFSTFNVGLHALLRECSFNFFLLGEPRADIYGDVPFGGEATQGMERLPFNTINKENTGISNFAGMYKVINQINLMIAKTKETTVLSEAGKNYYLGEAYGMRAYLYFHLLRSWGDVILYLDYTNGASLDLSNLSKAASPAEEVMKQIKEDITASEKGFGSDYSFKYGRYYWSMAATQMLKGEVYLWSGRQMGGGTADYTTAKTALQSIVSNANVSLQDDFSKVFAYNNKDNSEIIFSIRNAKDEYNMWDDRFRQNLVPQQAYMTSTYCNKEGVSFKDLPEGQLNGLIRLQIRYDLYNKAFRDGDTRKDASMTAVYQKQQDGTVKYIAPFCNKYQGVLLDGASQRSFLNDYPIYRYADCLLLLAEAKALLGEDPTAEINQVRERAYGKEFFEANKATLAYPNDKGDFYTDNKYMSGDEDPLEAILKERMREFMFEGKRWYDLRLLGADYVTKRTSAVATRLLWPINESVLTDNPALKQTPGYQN
- ASSAY_NOTES: Steady-state tryptophan fluorescence titration, BF-NanU
- Format: binding
- CONDITION_DESCRIPTION: BF-NanU expressed and purified from cells grown in M9 medium plus glycerol (results not shown)
pKd: −log10 of the molar value.

MOLECULE | pKd
CC(=O)N[C@H]1[C@H]([C@H](O)[C@H](O)CO)OC(O)(C(=O)O)C[C@@H]1O (stereo partly shown) | 6.39

====

- TARGET_ENTITY: NanU
- ASSAY_NOTES: Steady-state tryptophan fluorescence titration, NanU (species not told apart)
- CONDITION_DESCRIPTION: NanU from two Bacteroidetes species, approximate summary value
- Experimental: Proteins were diluted in 25 mM sodium phosphate buffer, pH 7.4, to a final concentration of 0.5 μM and incubated at 25°C for 5 min before substrate titration. The quenching of intrinsic tryptophan fluorescence was measured at 25°C with constant stirring in a 104F-QS quartz fluorescence semi-micro cell (Hellma Analytics) using a Varian Cary Eclipse spectrofluorometer. The excitation and emission wavelengths were 295 nm (5 nm slit width) and 330 nm (10 nm slit width) respectively. […]
pKd: −log10 of the molar value.
MEASURED_QUANTITY: pKd

COMPOUND | MEASURED_QUANTITY | RESULT
CC(=O)N[C@H]1[C@H]([C@H](O)[C@H](O)CO)OC(O)(C(=O)O)C[C@@H]1O (stereo partly shown) | pKd | ~6.40

Measured values drawn from paper PMC3969230 for this set.
